MEASURED METRIC: melting point

Give the reported value of melting point for this record: Cc1c(CC(=O)NC2CCN(Cc3ccc(Cl)c(Cl)c3)CC2)cnn1-c1ccccc1 165 °C

Give the reported value of melting point for this record: CCCc1c(OCCCCCc2c(Cl)c(Cl)cc(OC)c2OC)ccc(C(=O)O)c1O 152 to 154 °C

Give the reported value of melting point for this record: COc1ccc(Cc2nc3n(c2-c2ccccc2)CCS3)cc1 273 to 274 °C

Give the reported value of melting point for this record: Cc1cc(C)c(N2C(=N)N(c3c(C)cccc3C)CC2C)c(C)c1 (stereo not given) 128 to 130 °C

Give the reported value of melting point for this record: COC(=O)NS(=O)(=O)c1ccc(NC(=O)COc2ccc(Cl)cc2C)cc1 184 to 185 °C
